TEST SYSTEM: Voltage-dependent L-type calcium channel subunit alpha-1C (Cavia porcellus, UniProt O35505)
Sequence (O35505 whole entry): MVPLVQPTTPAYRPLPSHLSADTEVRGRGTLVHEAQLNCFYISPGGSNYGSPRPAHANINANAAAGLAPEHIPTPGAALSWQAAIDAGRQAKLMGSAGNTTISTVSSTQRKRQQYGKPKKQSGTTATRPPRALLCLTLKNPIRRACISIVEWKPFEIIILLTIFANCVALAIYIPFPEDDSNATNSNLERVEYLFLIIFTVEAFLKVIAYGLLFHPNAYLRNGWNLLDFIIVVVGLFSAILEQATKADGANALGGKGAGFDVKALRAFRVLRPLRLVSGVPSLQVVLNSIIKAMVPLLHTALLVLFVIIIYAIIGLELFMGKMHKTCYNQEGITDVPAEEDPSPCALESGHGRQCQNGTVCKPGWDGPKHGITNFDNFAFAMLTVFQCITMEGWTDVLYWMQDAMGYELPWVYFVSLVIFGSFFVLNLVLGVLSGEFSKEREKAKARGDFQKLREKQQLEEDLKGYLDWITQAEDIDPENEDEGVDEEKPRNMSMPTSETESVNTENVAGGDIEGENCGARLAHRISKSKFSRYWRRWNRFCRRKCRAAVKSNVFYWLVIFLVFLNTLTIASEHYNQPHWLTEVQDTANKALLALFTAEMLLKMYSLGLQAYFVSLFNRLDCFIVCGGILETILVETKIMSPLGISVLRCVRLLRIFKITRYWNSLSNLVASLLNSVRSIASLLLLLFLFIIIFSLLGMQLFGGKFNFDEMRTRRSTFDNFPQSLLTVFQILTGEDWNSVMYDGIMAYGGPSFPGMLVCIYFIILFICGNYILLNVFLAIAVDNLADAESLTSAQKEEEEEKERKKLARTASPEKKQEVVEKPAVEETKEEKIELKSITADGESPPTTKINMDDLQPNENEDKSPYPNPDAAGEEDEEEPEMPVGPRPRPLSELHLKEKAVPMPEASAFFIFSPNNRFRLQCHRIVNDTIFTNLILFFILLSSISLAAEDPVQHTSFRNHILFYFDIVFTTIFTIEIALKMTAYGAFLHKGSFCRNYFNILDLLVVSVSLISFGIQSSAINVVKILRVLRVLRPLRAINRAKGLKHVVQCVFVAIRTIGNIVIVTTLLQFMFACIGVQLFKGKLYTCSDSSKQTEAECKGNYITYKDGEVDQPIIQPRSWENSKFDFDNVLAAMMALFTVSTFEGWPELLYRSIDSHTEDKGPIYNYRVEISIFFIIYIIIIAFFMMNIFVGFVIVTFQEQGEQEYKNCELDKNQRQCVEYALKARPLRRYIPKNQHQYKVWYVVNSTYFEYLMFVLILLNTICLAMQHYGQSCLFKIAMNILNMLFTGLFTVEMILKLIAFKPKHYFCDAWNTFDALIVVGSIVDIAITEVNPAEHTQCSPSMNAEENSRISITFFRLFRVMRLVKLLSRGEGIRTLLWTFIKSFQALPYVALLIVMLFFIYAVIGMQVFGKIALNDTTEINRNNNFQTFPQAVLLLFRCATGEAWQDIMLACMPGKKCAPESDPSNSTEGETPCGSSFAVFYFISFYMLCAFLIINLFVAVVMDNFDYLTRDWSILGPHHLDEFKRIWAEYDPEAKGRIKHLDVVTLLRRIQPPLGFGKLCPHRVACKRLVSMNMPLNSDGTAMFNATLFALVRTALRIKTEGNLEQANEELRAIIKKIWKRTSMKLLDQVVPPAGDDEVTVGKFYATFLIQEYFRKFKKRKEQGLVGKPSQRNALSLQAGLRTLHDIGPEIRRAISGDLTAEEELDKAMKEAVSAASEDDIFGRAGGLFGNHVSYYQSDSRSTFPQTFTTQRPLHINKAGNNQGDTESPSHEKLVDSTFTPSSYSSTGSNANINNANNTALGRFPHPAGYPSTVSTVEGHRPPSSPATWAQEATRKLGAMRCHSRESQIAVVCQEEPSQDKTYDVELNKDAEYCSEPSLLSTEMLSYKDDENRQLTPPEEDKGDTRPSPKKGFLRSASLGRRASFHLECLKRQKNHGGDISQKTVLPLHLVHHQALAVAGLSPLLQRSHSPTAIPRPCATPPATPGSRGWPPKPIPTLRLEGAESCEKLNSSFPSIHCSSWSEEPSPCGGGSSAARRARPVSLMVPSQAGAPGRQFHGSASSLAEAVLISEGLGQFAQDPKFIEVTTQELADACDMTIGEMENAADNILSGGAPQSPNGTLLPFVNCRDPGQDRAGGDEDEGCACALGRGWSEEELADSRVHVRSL
TEST NAME: Inhibition of Calcium channel in Cavia porcellus albino (guinea pig) ileocecal SMC assessed as inhibition of 80 mM KCl-induced contraction
DETAILS: guinea pig
// IC30 lookup, one value per entry
API: value field is a number in ×10⁻⁶ M; no unit string.

(Q) Consider the molecule CCOC(=O)C1=C(C)NC(C)=C(C(=O)OCC)C1c1cc(=O)cc(-c2ccccc2)o1 and give its measured IC30.
(A) 1.01

(Q) Consider the molecule COC(=O)C1=C(C)NC(C)=C(C(=O)OC)C1c1ccc(-c2cc(=O)cc(C)o2)cc1 and give its measured IC30.
(A) 3.67

(Q) Consider the molecule CCOC(=O)C1=C(C)NC(C)=C(C(=O)OC)C1c1ccc(-c2cc(=O)cc(C)o2)cc1 (stereo unspecified) and give its measured IC30.
(A) 4.62

(Q) Consider the molecule CCOC(=O)C1=C(C)NC(C)=C(C(=O)OCC)C1c1ccc(-c2cc(=O)cc(-c3ccccc3)o2)cc1 and give its measured IC30.
(A) 6.12

(Q) Consider the molecule CCOC(=O)C1=C(C)NC(C)=C(C(=O)OC)C1c1ccc(-c2cc(=O)cc(-c3ccccc3)o2)cc1 (stereo unspecified) and give its measured IC30.
(A) 4.62

Continuing:
(Q) Consider the molecule CCOC(=O)C1=C(C)NC(C)=C(C(=O)OCC)C1c1cc(=O)cc(C)o1 and give its measured IC30.
(A) 1.45

(Q) Consider the molecule COC(=O)C1=C(C)NC(C)=C(C(=O)OC)C1c1ccc(-c2cc(=O)cc(-c3ccccc3)o2)cc1 and give its measured IC30.
(A) 1.26
